These entries and their values trace back to a melting point compilation (Tetko et al.; mined from patent text by program, amines drawn as free bases though some values may be those of a salt).

melting point values by entry

// below: answered compounds
- COMPOUND: "Cc1ccc2c(c1)C(=O)c1ccccc1CC2"
  melting point: "34 to 35 °C"
- COMPOUND: "CCCOc1ccc(Br)cc1-c1nc2c(C)cccc2c(=O)[nH]1"
  melting point: "179 to 180 °C"
- COMPOUND: "Cc1c(C2CCC(c3ccccc3)(N(C)C)CC2)[nH]c2ccc(O)cc12 (configuration not stated)"
  melting point: "164 to 169 °C"
- COMPOUND: "FC(F)(F)c1cccc(C2=NN3CCN=C3C=C2)c1"
  melting point: "137 to 139 °C"
- COMPOUND: "O=[N+]([O-])c1cccc(/C=C/c2nc(C3CCCCCC3)cs2)c1"
  melting point: "60 °C"
- COMPOUND: "CCNc1cc(C)c(S(=O)(=O)C[N+](=O)[O-])c(C)c1"
  melting point: "143 °C"

Query: # melting point lookup, item COC(=O)c1ccc2c(c1)CCC(CCN1CCC(c3ccccc3)CC1)C2=O (configuration not stated)
Reply: 110 to 112 °C

Query: # melting point lookup, item COc1ccccc1N1CCN(CCCn2c(=O)[nH]c3ccsc3c2=O)CC1
Reply: 78 to 84 °C

Query: # melting point lookup, item OCCC(c1ccccc1)C(O)(c1ccccc1)c1ccc(OCc2ccccc2)cc1 (configuration not stated)
Reply: 109 to 115 °C

Query: # melting point lookup, item CS(=O)(=O)Cc1c(C(=O)O)ccc2c1OC(F)(F)O2
Reply: 107 to 109 °C

Query: # melting point lookup, item O=C1C=C(NC(=O)C(=O)c2cn(Cc3ccc(F)cc3)c3ccccc23)CO1
Reply: 260 to 262 °C

Query: # melting point lookup, item CC(=O)Oc1ccc(Cl)c2c(=O)c3ccccc3sc12
Reply: 141 to 142 °C

Query: # melting point lookup, item CCC(=O)NCCC1CCc2c(OC)ccc3ccc(OC)c1c23 (configuration not stated)
Reply: 111 °C

Query: # melting point lookup, item CON(C)C(=O)c1cc(S(N)(=O)=O)sc1Cl
Reply: 223 to 225 °C

Query: # melting point lookup, item O=C1CCCN1c1cccc(Cc2n[nH]c(=O)c3ccccc23)c1
Reply: 206 to 207 °C

Query: # melting point lookup, item CC(C)Oc1cc(NNC(=N)C(F)(F)F)c(Cl)cc1Cl
Reply: 80.5 to 81 °C

Query: # melting point lookup, item CCC(=O)N(C)c1cccc(-c2nc(=O)c3ccccc3s2)n1
Reply: 201 °C

Query: # melting point lookup, item COc1cc(Br)c(C(C)=O)cc1OC(C)C
Reply: 59 to 59.9 °C

Query: # melting point lookup, item Nc1ccc2ccc(-c3cccc(Br)c3)nc2n1
Reply: 165 to 166 °C

Query: # melting point lookup, item Cc1nc(NC(=O)c2ccccc2)sc1C(=O)NNC(=O)c1ccccc1
Reply: 258 to 260 °C

Query: # melting point lookup, item CCCCCCCCCCCc1cc2ccc(C(=O)OC)cc2[nH]1
Reply: 84 to 86 °C

Query: # melting point lookup, item CNC(=S)NC1=NN(c2ccc(Cl)cc2)CC1
Reply: 237 °C

###

melting point values by entry

- MOLECULE: "CC(c1ccc(C#N)nc1)C(O)(Cn1cncn1)c1ccc(F)cc1F (centres undefined)"
  ASSAY_RESULT: "136 to 141 °C"
- MOLECULE: "CC(=O)c1cccc(Nc2nnc(-c3cccc(Oc4cccc(C(F)(F)F)c4)c3)s2)c1"
  ASSAY_RESULT: "130 to 133 °C"
- MOLECULE: "CON1C=C2N=NC3=C(N2C1)N(C1CCCCC1)CC(C)=C3"
  ASSAY_RESULT: "174 to 177 °C"
- MOLECULE: "C[C@H](CN1CC[C@@H](F)C1)NC(=O)c1c[nH]c2ncc(-c3nn(C)c4cc(Cl)ccc34)nc12"
  ASSAY_RESULT: "233 to 234 °C"
- MOLECULE: "Cc1oc2c(C)cc(C=O)cc2c1C"
  ASSAY_RESULT: "57 to 58 °C"

Query: # melting point lookup, item CCN(c1nc2ccccc2[nH]1)C1CCN(CCc2ccccc2)CC1
Reply: 205 °C

Query: # melting point lookup, item CCCCCCCCCCCCCCCCCC(=O)NC(C)c1c[nH]c(CCCCCCCCCCCCCCCCC)n1 (centres undefined)
Reply: 76 to 82 °C

Query: # melting point lookup, item COCc1ncccc1CN(CCn1ccc2occc2c1=O)Cc1ccc2c(c1)NC(=O)C(C)(C)C(=O)N2CC(C)C
Reply: 149 to 151 °C

Query: # melting point lookup, item OC(CN1CCNC1=S)c1ccncc1 (centres undefined)
Reply: 204 °C
